# target.or.system: monoclonal antibody mAB 198
# assay.text: peptide microarray, fluorescence, cyclic peptide
Where no end group is shown, it is not given here.
Quick reference: relative signal [%] of the listed items.
Kindly provide the numeric value in % only, without the unit symbol.

Sample records with relative signal [%]:
Query block: Give relative signal [%] for the following binder: NPADYGN (also: cyclic peptide, mode of cyclisation not given here) [NPADYGN, cyclic mimotope]
Result block: 8.7

Query block: Give relative signal [%] for the following binder: SLRFNPADY (also: cyclic peptide, ring type and places not given here)
Result block: 13.6

Query block: Give relative signal [%] for the following binder: RLHWNPADY (also: cyclic peptide, ring type and places not given here)
Result block: 10.8

Query block: Give relative signal [%] for the following binder: RLRINPADY (also: cyclic peptide, ring type and places not given here)
Result block: 25.5

# context switch: different binder, same relative signal [%]
Query block: Give relative signal [%] for the following binder: RRNPADY (also: cyclic peptide, ring type and places not given here) [RRNPADY, cyclic mimotope]
Result block: 23.5
